Procedure Details: Cytotoxicity against human THP-1 cells by CCK-8 method
Assay type: toxicity, cell-based
Recorded Endpoint: CC50

Compound String	Recorded Endpoint	Recorded Value
CC1(C)CC[C@H](O)[C@]23CO[C@](O)([C@@H](O)[C@H]12)[C@]12C(=O)[C@@H](CCNS(=O)(=O)c4ccc(C(F)(F)F)cc4)[C@H](CC[C@@H]31)[C@H]2O	CC50	> 100 µM
CC(C)(C)OC(=O)NCC[C@@H]1C(=O)[C@]23[C@H](O)[C@H]1CC[C@H]2[C@@]12CO[C@]3(O)[C@@H](O)[C@@H]1C(C)(C)CC[C@@H]2O	CC50	> 100 µM
CC1(C)CC[C@H](O)[C@]23CO[C@](O)([C@@H](O)[C@H]12)[C@]12C(=O)[C@@H](CCNS(=O)(=O)c4ccc(C#N)cc4)[C@H](CC[C@@H]31)[C@H]2O	CC50	> 100 µM
CN(C)c1cccc2c(S(=O)(=O)NCC[C@@H]3C(=O)[C@]45[C@H](O)[C@H]3CC[C@H]4[C@@]34CO[C@]5(O)[C@@H](O)[C@@H]3C(C)(C)CC[C@@H]4O)cccc12	CC50	96.8 µM
CC1(C)CC[C@H](O)[C@]23CO[C@](O)([C@@H](O)[C@H]12)[C@]12C(=O)[C@@H](CCNS(=O)(=O)c4ccc(F)cc4)[C@H](CC[C@@H]31)[C@H]2O	CC50	> 100 µM

* * *

Listing: CC50 of selected molecules
Procedure Details: Cytotoxicity against human THP-1 cells by CCK-8 method
Format: toxicity, cell-based
Recorded Endpoint: CC50

> print(dat)
                            compound.string  recorded.endpoint  recorded.value
1  CC1(C)CC[C@H](O)[C@]23CO[C@](O)([C@@H](O)[C@H]12)[C@]12C(=O)[C@@H](CCNS(=O)(=O)c4ccsc4)[C@H](CC[C@@H]31)[C@H]2O               CC50        > 100 µM
2  Cn1ccc(S(=O)(=O)NCC[C@@H]2C(=O)[C@]34[C@H](O)[C@H]2CC[C@H]3[C@@]23CO[C@]4(O)[C@@H](O)[C@@H]2C(C)(C)CC[C@@H]3O)n1               CC50        > 100 µM
3  CC1(C)CC[C@H](O)[C@]23CO[C@](O)([C@@H](O)[C@H]12)[C@]12C(=O)[C@@H](CCNS(=O)(=O)c4ccccc4)[C@H](CC[C@@H]31)[C@H]2O               CC50        > 100 µM

* * *

Procedure Details: Cytotoxicity against human THP-1 cells by CCK-8 method
Format: toxicity, cell-based
Recorded Endpoint: CC50

> print(dat)
                            compound.string  recorded.value
1  C=C1C(=O)[C@]23[C@H](O)[C@H]1CC[C@H]2[C@@]12CO[C@]3(O)[C@@H](O)[C@@H]1C(C)(C)CC[C@@H]2O         19.8 µM
2  CC1(C)CC[C@H](O)[C@]23CO[C@](O)([C@@H](O)[C@H]12)[C@]12C(=O)[C@@H](CCN)[C@H](CC[C@@H]31)[C@H]2O        > 100 µM
3  CC1(C)CC[C@H](O)[C@]23CO[C@](O)([C@@H](O)[C@H]12)[C@]12C(=O)[C@@H](CCNS(=O)(=O)/C=C/c4ccccc4)[C@H](CC[C@@H]31)[C@H]2O        > 100 µM
4  CC1(C)CC[C@H](O)[C@]23CO[C@](O)([C@@H](O)[C@H]12)[C@]12C(=O)[C@@H](CCNS(=O)(=O)c4cccnc4)[C@H](CC[C@@H]31)[C@H]2O        > 100 µM
5  COc1ccc(S(=O)(=O)NCC[C@@H]2C(=O)[C@]34[C@H](O)[C@H]2CC[C@H]3[C@@]23CO[C@]4(O)[C@@H](O)[C@@H]2C(C)(C)CC[C@@H]3O)cc1        > 100 µM
